tested on: 832693-133-R-J1-PDC multi-cell spheroids, viability; assay: Anticancer human tumor 832693-133-R-J1-PDC patient-derived head and neck squamous carcinoma cell line growth inhibition [IpAb]; conditions: second compound 1 µM; first compound 0.000316 µM; stronger effect = lower value;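 also: spheroids exposed to the drugs for one week before the viability readout; 100% = DMSO vehicle control wells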
RECORDED METRIC: viability, T/C (%)

COMPOUND | TARGET OR SYSTEM | RECORDED METRIC | OBSERVED
Cn1ncnc1[C@H]1c2n[nH]c(=O)c3cc(F)cc(c23)N[C@@H]1c1ccc(F)cc1 + CC(C)NCC(C(=O)N1CCN(c2ncnc3c2C(C)CC3O)CC1)c1ccc(Cl)cc1 | 832693-133-R-J1-PDC multi-cell spheroids, viability | viability, T/C | 59.5
CC(C)n1nc(-c2ccc3oc(N)nc3c2)c2c(N)ncnc21 + CC(C)NCC(C(=O)N1CCN(c2ncnc3c2C(C)CC3O)CC1)c1ccc(Cl)cc1 | 832693-133-R-J1-PDC multi-cell spheroids, viability | viability, T/C | 59.4
Cn1ncnc1[C@H]1c2n[nH]c(=O)c3cc(F)cc(c23)N[C@@H]1c1ccc(F)cc1 + CCN1CCN(Cc2ccc(Nc3ncc(F)c(-c4cc(F)c5nc(C)n(C(C)C)c5c4)n3)nc2)CC1 | 832693-133-R-J1-PDC multi-cell spheroids, viability | viability, T/C | 63.6
CC(C)n1nc(-c2ccc3oc(N)nc3c2)c2c(N)ncnc21 + CCN1CCN(Cc2ccc(Nc3ncc(F)c(-c4cc(F)c5nc(C)n(C(C)C)c5c4)n3)nc2)CC1 | 832693-133-R-J1-PDC multi-cell spheroids, viability | viability, T/C | 59.5
